Data origin: patent US9050266B2

# maps each entry to its pKd
ASSAYED_TARGET: receptors of AR type (androgen receptor) (Homo sapiens, UniProt P10275)
Sequence (P10275 1-920): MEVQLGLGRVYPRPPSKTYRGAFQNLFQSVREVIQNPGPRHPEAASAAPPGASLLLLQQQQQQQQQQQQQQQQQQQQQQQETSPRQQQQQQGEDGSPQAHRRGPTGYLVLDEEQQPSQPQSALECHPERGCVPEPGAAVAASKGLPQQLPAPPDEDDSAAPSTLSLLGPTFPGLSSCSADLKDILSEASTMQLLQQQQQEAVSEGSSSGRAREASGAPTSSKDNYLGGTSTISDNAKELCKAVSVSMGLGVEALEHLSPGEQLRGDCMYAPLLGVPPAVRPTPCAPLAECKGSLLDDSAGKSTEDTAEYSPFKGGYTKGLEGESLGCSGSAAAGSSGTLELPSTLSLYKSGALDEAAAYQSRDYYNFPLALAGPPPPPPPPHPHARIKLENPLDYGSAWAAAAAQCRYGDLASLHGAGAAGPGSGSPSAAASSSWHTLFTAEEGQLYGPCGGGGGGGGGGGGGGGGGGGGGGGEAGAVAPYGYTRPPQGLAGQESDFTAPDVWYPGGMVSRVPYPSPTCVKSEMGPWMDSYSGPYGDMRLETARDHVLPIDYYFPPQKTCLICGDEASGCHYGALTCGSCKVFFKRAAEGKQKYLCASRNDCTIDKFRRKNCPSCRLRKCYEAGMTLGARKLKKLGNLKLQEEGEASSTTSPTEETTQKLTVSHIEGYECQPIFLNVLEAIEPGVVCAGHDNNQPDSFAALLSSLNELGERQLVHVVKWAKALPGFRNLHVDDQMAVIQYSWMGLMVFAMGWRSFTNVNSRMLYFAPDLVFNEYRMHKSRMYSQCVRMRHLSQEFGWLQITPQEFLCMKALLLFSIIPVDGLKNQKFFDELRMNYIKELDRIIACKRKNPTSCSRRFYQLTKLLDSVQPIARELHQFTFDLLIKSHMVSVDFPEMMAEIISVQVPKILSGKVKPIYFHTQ
pKd: −log10 of the molar value.
PROPERTY_LABEL: pKd

1. COc1cncc(NCc2ccccc2O)n1 [Example 19]; 8.10
2. Cc1cc(Cl)nc(NCc2ccccc2O)c1 [Example 18]; 6.00
3. N#Cc1cccc(NCc2ccccc2O)n1 [Example 4]; 6.70
4. COc1cccc(NCc2ccccc2O)n1 [Example 1]; 7.40
